These data points were gathered from ChEMBL document CHEMBL4513216.

experiment: Toxicity liver stage against HepG2, at 10uM; type: cell-based; set-up: test concentration 10 uM, cell line HepG2-A16-CD81EGFP; settings: human, HepG2-A16-CD81EGFP cells; read-out: INHIBITION
measure name: cytotoxicity at 10 µM (%)
Answer in %, number only, no unit symbol.

// solved cases for cytotoxicity at 10 µM follow
1. CCOCc1cnc2n1CCN(Cc1scnc1C)C2C (configuration not stated)    8.85
2. CC(C)c1nc2c(n1C)CCN(CCc1ccccn1)C2    -2.01
3. CCc1noc(C(C)N2CCN(CCc3ccncc3)CC2)n1 (configuration not stated)    1.6
4. O=C(NCc1ccccn1)N(Cc1ccc(F)cc1F)C1CC1    -17.5

QUERY: Entry CCCNC(=O)c1nn(CC)cc1Cl has what cytotoxicity at 10 µM?
RESULT: 6.11

QUERY: Entry NC(=O)C1CCN(CC(=O)N2CCCC2c2ccsc2)CC1 (configuration not stated) has what cytotoxicity at 10 µM?
RESULT: -11.4

QUERY: Entry O=C(CN1CCCCC1Cn1cncn1)NC1CCN(C2CC2)CC1 (configuration not stated) has what cytotoxicity at 10 µM?
RESULT: -19.3
